As shown below, each of these compounds has a reported growth inhibition value.
- measurement-description: NCI Yeast Anticancer Drug Screen. Data for the sgs1 mgt1 strain (AID 161);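 note: 0% = growth of cultures given vehicle only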
- experimental-conditions: S. cerevisiae sgs1 mgt1 strain, at 50.0 µM, active compounds read high
- Experimental: Growth inhibition of yeast strains with defined genetic alterations is measured as a screen for potential anti-cancer activity. Selected strains with alterations in DNA damage repair or cell cycle control were exposed to compounds and growth inhibition was measured relative to vehicle treated controls. The strain used in this assay is sgs1 mgt1
Compounds without any hit were thinned out: in the full panel of roughly 79,000, 15% have a hit.

{"compound": "O=C(CBr)c1c2c(cc3c1CCCC3)CCCC2", "growth inhibition (%)": -2.05}
{"compound": "Oc1ccccc1C=Nc1ccc(N2CCOCC2)cc1", "growth inhibition (%)": 10.1}
{"compound": "CCCCCCCCCCS(C)(=O)=O", "growth inhibition (%)": -7.25}
{"compound": "CC(=O)C1=C(C)C2CC3(C)CC(C2(C)C1)C3(C)C (stereo not drawn)", "growth inhibition (%)": -0.95}
{"compound": "CN(C)CCC(C(=O)C(C)(C)C)c1ccccn1 (stereo not drawn)", "growth inhibition (%)": -5.65}
{"compound": "CCOC1NC(/N=C/c2ccc(OC)cc2)=C(C#N)C1C#N (stereo not drawn)", "growth inhibition (%)": -49.5}
{"compound": "C/C(=C/C(C)O)c1ccccc1 (stereo not drawn)", "growth inhibition (%)": -15.2}
{"compound": "CC(=O)/C(C)=N/Nc1ccccc1", "growth inhibition (%)": -2.6}
{"compound": "NNc1cn[nH]c(=O)c1Cl", "growth inhibition (%)": -10.1}
{"compound": "CCCCC(O)(CCCC)CC(C)(C)C", "growth inhibition (%)": -9}
{"compound": "COC(=O)C1C(=O)C=C(O)C2CCCCC21 (stereo not drawn)", "growth inhibition (%)": -0.35}
{"compound": "O=C1CCC2=C3C4CCCC5OC6CC(=O)CCC6=C(C6CCCC(OC2C1)C36)C54 (stereo not drawn)", "growth inhibition (%)": 6.55}
{"compound": "Nc1nc(CCC(=O)Nc2cccc(C(F)(F)F)c2)cc(-c2ccc3ccccc3c2)n1", "growth inhibition (%)": -77.7}

----------
- measurement-description: NCI Yeast Anticancer Drug Screen. Data for the sgs1 mgt1 strain (AID 161);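 note: 0% = growth of cultures given vehicle only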
- experimental-conditions: S. cerevisiae sgs1 mgt1 strain, at 50.0 µM, active compounds read high
The panel holds about 79,000 compounds, 15% with a hit somewhere; the sample as a whole holds those more often.
As shown below, each of these compounds has a reported growth inhibition value.

{"compound": "NC(=O)CC1(C(=O)O)c2ccccc2-c2ccccc21", "unit-descriptor": "%", "growth inhibition": 2.65}
{"compound": "CC(=O)Oc1ccc([N+](=O)[O-])cc1", "unit-descriptor": "%", "growth inhibition": 27.4}
{"compound": "N#CC1=C(Nc2ccccc2)SC(c2cccs2)NC1=O (stereo not given)", "unit-descriptor": "%", "growth inhibition": 20.6}
{"compound": "CCOC(=O)NN(C(=O)OCC)C(C(=O)C1CCCCC1)N(NC(=O)OCC)C(=O)OCC", "unit-descriptor": "%", "growth inhibition": 18.9}
{"compound": "CCOC(=O)C1CCCC1S(=O)(=O)c1ccc(C)cc1 (stereo not given)", "unit-descriptor": "%", "growth inhibition": -27.4}
{"compound": "Nc1cc2cn[nH]c2cc1N", "unit-descriptor": "%", "growth inhibition": 4.4}
{"compound": "CC(=O)SCCCCl", "unit-descriptor": "%", "growth inhibition": 11.2}
{"compound": "COc1ccc(C(=O)Nc2ccn(CCOC(=O)c3ccc(OC)cc3)c(=O)n2)cc1", "unit-descriptor": "%", "growth inhibition": -3.1}
{"compound": "CN(C)C(=O)NNC(=O)N(C)C", "unit-descriptor": "%", "growth inhibition": 12.8}
{"compound": "CCC1N=C(N)N=C(N)N1c1ccc(Cl)c(Cl)c1 (stereo not given)", "unit-descriptor": "%", "growth inhibition": 9.25}
{"compound": "O=C(Oc1ccccc1)C(c1ccccc1)c1ccccc1", "unit-descriptor": "%", "growth inhibition": 7.95}
{"compound": "COC(=O)C(C)C1Sc2ccccc2NC1=O (stereo not given)", "unit-descriptor": "%", "growth inhibition": -17.3}
{"compound": "C/C=C/C(=O)N1C(=O)OC[C@@H]1c1ccccc1", "unit-descriptor": "%", "growth inhibition": 49.7}
{"compound": "NC(=S)NNC(N)=S", "unit-descriptor": "%", "growth inhibition": -7.3}
{"compound": "COC(=O)C1(CC(=O)c2ccc(F)cc2)NC(=S)NC(=O)C1C#N (stereo not given)", "unit-descriptor": "%", "growth inhibition": -8.3}
{"compound": "CCOC(=O)c1c(N)[nH]c(SSc2[nH]c(N)c(C(=O)OCC)c2C(=O)OCC)c1C(=O)OCC", "unit-descriptor": "%", "growth inhibition": 30.3}
{"compound": "CC(=O)OCC(OC(C)=O)C(OC(C)=O)C(OC(C)=O)C(OC(C)=O)c1cnn(-c2ccccc2)n1 (stereo not given)", "unit-descriptor": "%", "growth inhibition": 11.6}
{"compound": "O=C1OCC/C1=C\\c1cccc([N+](=O)[O-])c1", "unit-descriptor": "%", "growth inhibition": 11.2}
{"compound": "COc1ccc(Oc2nc(=O)n3ccccc3n2)cc1", "unit-descriptor": "%", "growth inhibition": -14.6}
{"compound": "COc1ccc2ccccc2c1C1=NC(C)(C)CO1", "unit-descriptor": "%", "growth inhibition": 2.6}
{"compound": "Nc1c(Cl)ncnc1NCCN1CCOCC1", "unit-descriptor": "%", "growth inhibition": 1.55}
{"compound": "O=C(NCC1CC1)NC(=O)c1c(F)cccc1Cl", "unit-descriptor": "%", "growth inhibition": 12.6}
{"compound": "O=C1OC(c2ccccc2)=N/C1=C\\c1cc2c(cc1Cl)OCO2", "unit-descriptor": "%", "growth inhibition": 16.1}
{"compound": "C=CCOC(=O)NC1C(OC(C)[C@@H](NC(=O)OCc2ccccc2)C(=O)OC(C)(C)C)OC(COC(C)=O)C(OC(C)=O)C1OC(C)=O (stereo not given in full)", "unit-descriptor": "%", "growth inhibition": -16.4}
{"compound": "CCOC(=O)Nc1ccc(NC(C)=O)cc1", "unit-descriptor": "%", "growth inhibition": 1.3}

----------
- measurement-description: NCI Yeast Anticancer Drug Screen. Data for the rad50 strain (AID 155);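 note: 0% = growth of vehicle-only cultures of the same strain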
- experimental-conditions: S. cerevisiae rad50 strain growth inhibition; at 50.0 µM; active compounds read high
This is part of a sample that, as a whole, favours compounds with a hit. Of some 79,000 tested, about 15% had one in any assay. Active and inactive are the calls of the source. Rule as the data show it: active = growth inhibition above about 70%; inactive = the rest. Where a SMILES comes first, the peptide text is derived from it. [ ]: non-standard residue; d: D form. The star is where a group is joined. ξ: configuration not given here. Cbz = O=C(OCc1ccccc1)*; ξP = O=C(O)C1CCCN1

{"compound": "CCCCCNC(=O)c1ccc(C)cc1", "growth inhibition": "2.5% (inactive)"}
{"compound": "Nc1ccc(Nc2c3ccccc3nc3ccccc23)cc1", "growth inhibition": "96% (active)"}
{"compound": "O=C(CNC(=O)OCc1ccccc1)NCC(=O)N1CCCC1C(=O)O (stereo not drawn) (Cbz-Gly-Gly-[ξP]-OH)", "growth inhibition": "-1.6% (inactive)"}
{"compound": "O=C1NC(=O)c2ccccc2/C1=C/c1ccc2c(c1)OCO2", "growth inhibition": "-16.6% (inactive)"}
{"compound": "O=C(O)CN1C(=O)NC(C2CC2)(C2CC2)C1=O", "growth inhibition": "-3.15% (inactive)"}
{"compound": "Cc1ccc(C2(C#N)CCCC2)cc1", "growth inhibition": "5.55% (inactive)"}
{"compound": "COc1ccc(C(Cc2ccccc2Cl)N(CCO)CCO)cc1 (configuration not stated)", "growth inhibition": "-7% (inactive)"}
{"compound": "CCOC(=O)/C=C(/OCC)c1cccc(Cl)c1", "growth inhibition": "9.4% (inactive)"}
{"compound": "O=C(NCCNc1ccccc1)C12CC3CC(CC(C3)C1)C2", "growth inhibition": "-4.2% (inactive)"}
{"compound": "CCOc1ccc(N=Nc2c(C)nc(N)nc2-c2ccccc2)cc1", "growth inhibition": "20.1% (inactive)"}
{"compound": "CC(=O)OCCOCNC(=S)N/N=C/c1ccc(Br)s1", "growth inhibition": "15.3% (inactive)"}
{"compound": "N#Cc1nnn2c1nc(N)c1c(Cl)cccc12", "growth inhibition": "0.75% (inactive)"}

----------
As shown below, each of these compounds has a reported growth inhibition value.
- measurement-description: NCI Yeast Anticancer Drug Screen. Data for the rad50 strain (AID 155);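 note: 0% = growth of vehicle-only cultures of the same strain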
- experimental-conditions: S. cerevisiae rad50 strain growth inhibition; at 50.0 µM; active compounds read high
Compounds without any hit were thinned out: in the full panel of roughly 79,000, 15% have a hit. Calls of active or inactive are those of the source. Rule as the data show it: active = growth inhibition above about 70%; inactive = the rest.
assay-readout: growth inhibition

{"compound": "CC1(C)C2CC3OC3(C)C1C2 (stereo not drawn)", "recorded-measurement": "21.3% (inactive)"}
{"compound": "CCc1ccccc1OCC1CO1 (stereo not drawn)", "recorded-measurement": "10.9% (inactive)"}
{"compound": "C=CC[Si](CC=C)(CC=C)OCC", "recorded-measurement": "22.5% (inactive)"}
{"compound": "CN(NC(=O)CCCl)C1=NCCN1", "recorded-measurement": "5.15% (inactive)"}
{"compound": "CC(=O)Nc1ccc(/C=N/NC(=O)/C=C/c2ccccc2)cc1", "recorded-measurement": "-7.15% (inactive)"}
{"compound": "COc1ccc(COCc2ccc(OC)cc2)cc1", "recorded-measurement": "4.55% (inactive)"}
{"compound": "CCOC(=O)/C=C/c1ccccn1", "recorded-measurement": "-15.3% (inactive)"}
{"compound": "C[N+](C)(N)CCS(N)(=O)=O", "recorded-measurement": "0.15% (inactive)"}

Source of measurements: PubChem BioAssay (NCI)
